The measured values listed here are drawn from ChEMBL document CHEMBL3885861.

Organism: Rattus norvegicus
assay explanation: Open TG-GATES - Regimen: Daily Repeat
Assay type: toxicity, organism-based, Sprague-Dawley
Set-up: regimen Daily Repeat, gender Male, age 6 weeks
measurement parameters: in vivo, po, 0 mg/kg, 72 h, tissue Plasma, route gavage, dose level Control, time 3 day
measured attribute: CRE
Number first, unit second.

Determine from records and report CRE for COc1ccc([C@@H]2Sc3ccccc3N(CCN(C)C)C(=O)[C@@H]2OC(C)=O)cc1
0.2 mg/dL

Provide CRE value for the following compound: Nc1ccc(Cc2ccc(N)cc2)cc1
0.2 mg/dL

Note CRE for the compound shown: CCO
0.6 mg/dL

Input CCCCC1C(=O)N(c2ccccc2)N(c2ccccc2)C1=O , output reported CRE.
0.6 mg/dL

Supply reported CRE belonging to this compound: CC(S)C(=O)NCC(=O)O (stereo not drawn)
0.2 mg/dL

Answer with the recorded CRE of O=C(O)c1ccccc1Nc1ccccc1 only.
0.2 mg/dL

Quick one: give measured CRE for NS(=O)(=O)c1cc(C(=O)O)c(NCc2ccco2)cc1Cl [FUROSEMIDE]
0.2 mg/dL

Retrieve CRE measured for CCN(CC)C(=S)SSC(=S)N(CC)CC and print it.
0.2 mg/dL

###

Species: Rattus norvegicus
assay explanation: Open TG-GATES - Regimen: Daily Repeat
Format: toxicity, organism-based, Sprague-Dawley
Design: regimen Daily Repeat, gender Male, age 6 weeks
measurement parameters: in vivo, po, 0 mg/kg, 72 h, tissue Blood, route gavage, dose level Control, time 3 day
measured attribute: Bas (%)
The response must be a number in % with no trailing unit.

molecule: CN(CCOc1ccc(CC2SC(=O)NC2=O)cc1)c1ccccn1.O=C(O)/C=C\C(=O)O (stereo not drawn) [ROSIGLITAZONE MALEATE]
units symbol: %
Bas: 0
//
molecule: CCO
units symbol: %
Bas: 0
//
molecule: Nc1ccc(Cc2ccc(N)cc2)cc1
units symbol: %
Bas: 0
//
molecule: O=c1ccc2ccccc2o1
units symbol: %
Bas: 0
//
molecule: CCN(CC)C(=S)SSC(=S)N(CC)CC
units symbol: %
Bas: 0

Indicate its recorded Bas; the molecule in question is CC(=O)[C@@]1(O)CC[C@H]2[C@@H]3C=C(Cl)C4=CC(=O)CC[C@]4(C)[C@H]3CC[C@@]21C
0

###

Entries and their ALT
Species on record: Rattus norvegicus
assay explanation: Open TG-GATES - Regimen: Single
Assay type: toxicity, organism-based, Sprague-Dawley
Design: regimen Single, gender Male, age 6 weeks
measurement parameters: in vivo, po, 0 mg/kg, 6 h, tissue Plasma, route gavage, dose level Control
Give the value in IU/L but do not write IU/L after it.

Solved cases below.
molecule: COc1ccc([C@@H]2Sc3ccccc3N(CCN(C)C)C(=O)[C@@H]2OC(C)=O)cc1
ALT (IU/L): 40.2
//
molecule: CC(=O)[C@@]1(O)CC[C@H]2[C@@H]3C=C(Cl)C4=CC(=O)CC[C@]4(C)[C@H]3CC[C@@]21C
ALT (IU/L): 40.8
//
molecule: O=c1ccc2ccccc2o1
ALT (IU/L): 36.4
//
molecule: CN(C)CCCN1c2ccccc2Sc2ccc(Cl)cc21
ALT (IU/L): 33.6
//
molecule: Nc1ccc(Cc2ccc(N)cc2)cc1
ALT (IU/L): 35.2
//
molecule: CCO
ALT (IU/L): 32.4

Return ALT (reported value) for this molecule: NS(=O)(=O)c1cc(C(=O)O)c(NCc2ccco2)cc1Cl [FUROSEMIDE]
39

Tell me its ALT given CC(S)C(=O)NCC(=O)O (stereo not given) as the entry.
39

// fetch ALT given entry O=C(O)c1ccccc1Nc1ccccc1
35

// fetch ALT given entry CN(CCOc1ccc(CC2SC(=O)NC2=O)cc1)c1ccccn1.O=C(O)/C=C\C(=O)O (stereo not given) [ROSIGLITAZONE MALEATE]
35.6

###

Species on record: Rattus norvegicus
assay explanation: Open TG-GATES - Regimen: Single
Assay type: toxicity, organism-based, Sprague-Dawley
Parameters: regimen Single, gender Male, age 6 weeks
measurement parameters: in vivo, po, 0 mg/kg, 24 h, tissue Plasma, route gavage, dose level Control
measured attribute: ALP (IU/L)
Use IU/L as the unit, but write only the number.

Below: 6 molecules and their reported ALP.
molecule: CN(C/C=C/C#CC(C)(C)C)Cc1cccc2ccccc12
units symbol: IU/L
ALP: 986.4
--
molecule: O=c1ccc2ccccc2o1
units symbol: IU/L
ALP: 985.2
--
molecule: O=C(O)c1ccccc1Nc1ccccc1
units symbol: IU/L
ALP: 1870.8
--
molecule: CC(=O)[C@@]1(O)CC[C@H]2[C@@H]3C=C(Cl)C4=CC(=O)CC[C@]4(C)[C@H]3CC[C@@]21C
units symbol: IU/L
ALP: 1565
--
molecule: CCN(CC)C(=S)SSC(=S)N(CC)CC
units symbol: IU/L
ALP: 1487.8
--
molecule: CCO
units symbol: IU/L
ALP: 862

Return ALP for the following molecule: C=C[C@H]1C[N@@]2CC[C@H]1C[C@@H]2[C@@H](O)c1ccnc2ccc(OC)cc12
1610.6

Look up and state reported ALP for CN(CCOc1ccc(CC2SC(=O)NC2=O)cc1)c1ccccn1.O=C(O)/C=C\C(=O)O (stereo not drawn) [ROSIGLITAZONE MALEATE]
1499.4

Annotate the molecule CN(C)CCCN1c2ccccc2Sc2ccc(Cl)cc21 with its measured ALP.
1074.4

Given NS(=O)(=O)c1cc(C(=O)O)c(NCc2ccco2)cc1Cl [FUROSEMIDE] , respond with its ALP.
1714.2

Report measured ALP; entry is CC(S)C(=O)NCC(=O)O (stereo not drawn)
1636.2

# return recorded ALP for input Nc1ccc(Cc2ccc(N)cc2)cc1
1942.2

Name the recorded ALP of the molecule listed here: CCCCNC(=O)NS(=O)(=O)c1ccc(C)cc1 [TOLBUTAMIDE]
1544.6

###

We begin with a simple list: items and their reported Mono.
Species: Rattus norvegicus
assay explanation: Open TG-GATES - Regimen: Daily Repeat
Type: toxicity, organism-based, Sprague-Dawley
Design: regimen Daily Repeat, gender Male, age 6 weeks
measurement parameters: in vivo, po, 100 mg/kg, […], tissue Blood, route gavage, dose level Low, time 28 day
Numbers only here, please. The scale is %.

Known Mono results, listed for orientation:
molecule: CC(=O)[C@@]1(O)CC[C@H]2[C@@H]3C=C(Cl)C4=CC(=O)CC[C@]4(C)[C@H]3CC[C@@]21C [CHLORMADINONE]
value measured: 1.6

molecule: O=C(O)c1ccccc1Nc1ccccc1 [FENAMIC ACID]
value measured: 2

molecule: CC(S)C(=O)NCC(=O)O (centres undefined) [TIOPRONIN]
value measured: 2.6

Would you kindly look at the next entry?
# return recorded Mono for input CCCCNC(=O)NS(=O)(=O)c1ccc(C)cc1 [TOLBUTAMIDE]
2.4

###

# LDH annotations
Organism: Rattus norvegicus
assay explanation: Open TG-GATES - Regimen: Daily Repeat
Format: toxicity, organism-based, Sprague-Dawley
Parameters: regimen Daily Repeat, gender Male, age 6 weeks
measurement parameters: in vivo, po, 100 mg/kg, […], tissue Plasma, route gavage, dose level Low, time 7 day
I only need the number, in IU/L, no unit after it.

Here is how some compounds turned out for LDH.
compound: CC(S)C(=O)NCC(=O)O (centres undefined)
LDH, IU/L: 146.2
--
compound: CC(=O)[C@@]1(O)CC[C@H]2[C@@H]3C=C(Cl)C4=CC(=O)CC[C@]4(C)[C@H]3CC[C@@]21C
LDH, IU/L: 148.4
--
compound: O=C(O)c1ccccc1Nc1ccccc1
LDH, IU/L: 94.6

Could you now consider this next compound?
Indicate the recorded LDH value for this compound: CCCCNC(=O)NS(=O)(=O)c1ccc(C)cc1 [TOLBUTAMIDE]
55.6

###

Organism: Rattus norvegicus
assay explanation: Open TG-GATES - Regimen: Daily Repeat
Type: toxicity, organism-based, Sprague-Dawley
Set-up: regimen Daily Repeat, gender Male, age 6 weeks
measurement parameters: in vivo, po, 0 mg/kg, 72 h, tissue Blood, route gavage, dose level Control, time 3 day
Note to self: Mono under 3% means met, ties and anything higher get not met.

Below, 5 compounds whose answers are already recorded.
compound: CN(CCOc1ccc(CC2SC(=O)NC2=O)cc1)c1ccccn1.O=C(O)/C=C\C(=O)O (stereo unspecified) [ROSIGLITAZONE MALEATE]
assigned category: not met
//
compound: Nc1ccc(Cc2ccc(N)cc2)cc1
assigned category: met
//
compound: CCO [ALCOHOL]
assigned category: not met
//
compound: CC(S)C(=O)NCC(=O)O (stereo unspecified) [TIOPRONIN]
assigned category: met
//
compound: CCCCNC(=O)NS(=O)(=O)c1ccc(C)cc1 [TOLBUTAMIDE]
assigned category: met

For the next question, use this compound.
Dear colleague, could you confirm whether Mono of NS(=O)(=O)c1cc(C(=O)O)c(NCc2ccco2)cc1Cl [FUROSEMIDE] falls below 3%? Thanks.
not met
